Tested System: NPFF1 receptor (human NPFFR1 in CHO-RD-HGA16 cells) (Homo sapiens)
Construct: expressed in transfected cells
Sequence (Q9GZQ6 whole entry): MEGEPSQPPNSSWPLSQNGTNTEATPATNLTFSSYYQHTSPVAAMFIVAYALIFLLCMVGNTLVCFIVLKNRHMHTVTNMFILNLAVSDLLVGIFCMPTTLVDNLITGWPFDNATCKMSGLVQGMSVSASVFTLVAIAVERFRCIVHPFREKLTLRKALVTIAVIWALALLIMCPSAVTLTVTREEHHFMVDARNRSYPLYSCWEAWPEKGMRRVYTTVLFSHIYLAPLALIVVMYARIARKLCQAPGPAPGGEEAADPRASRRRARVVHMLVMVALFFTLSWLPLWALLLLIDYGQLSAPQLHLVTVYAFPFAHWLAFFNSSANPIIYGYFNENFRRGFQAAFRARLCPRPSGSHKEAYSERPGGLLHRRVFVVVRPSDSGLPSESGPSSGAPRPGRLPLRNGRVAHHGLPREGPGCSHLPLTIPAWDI
Method: Calcium mobilization functional Ke assay, NPFF1
Assay type: cell-based
Assay Context: Table 4; mean ± SEM; read-out: NPFF1 Ke
Label Not met if Kb falls below 1000 nM; label Met in every other case.

Tell me whether Kb is at least 1000 nM here: COc1ccc(CN[C@H]2C[C@@H](C(=O)NCCc3ccccc3)N(Cc3ccccc3)C2)cc1
Met

What would you report for COc1ccc(CN[C@H]2C[C@@H](C(=O)NCCc3ccccc3)N(Cc3ccc4c(c3)OCO4)C2)cc1 ?
Met

What would you report for COc1ccc(CN[C@H]2C[C@@H](C(=O)NCCc3ccccc3)N(Cc3ccc4ccccc4c3)C2)cc1 ?
Met

What would you report for COc1ccc(CN[C@H]2C[C@@H](C(=O)NCCc3ccccc3)N(Cc3ccc(C#N)cc3)C2)cc1 ?
Met

What would you report for CCCCCCN1C[C@@H](NCc2ccc(OC)cc2)C[C@H]1C(=O)NCCc1ccccc1 ?
Met

What would you report for COc1ccc(CN[C@H]2C[C@@H](C(=O)NCCc3ccccc3)N(Cc3ccc(O)cc3)C2)cc1 ?
Met

What would you report for COc1ccc(CN[C@H]2C[C@@H](C(=O)NCCc3ccccc3)N(Cc3ccccc3C)C2)cc1 ?
Not met

What would you report for COc1ccc(CN[C@H]2C[C@@H](C(=O)NCCc3ccccc3)N(Cc3cccc(Cl)c3)C2)cc1 ?
Not met

What would you report for COc1ccc(CN[C@H]2C[C@@H](C(=O)NCCc3ccccc3)N(Cc3cccc(OC)c3)C2)cc1 ?
Met

What would you report for COc1ccc(CN[C@H]2C[C@@H](C(=O)NCCc3ccccc3)N(Cc3ccc(N(C)C)cc3)C2)cc1 ?
Met

What would you report for COc1ccc(CN[C@H]2C[C@@H](C(=O)NCCc3ccccc3)N(Cc3ccc(OC)c(OC)c3)C2)cc1 ?
Met

What would you report for COc1ccc(CN[C@H]2C[C@@H](C(=O)NCCc3ccccc3)N(Cc3ccc(Cl)cc3)C2)cc1 ?
Met

What would you report for COc1ccc(CN[C@H]2C[C@@H](C(=O)NCCc3ccccc3)N(Cc3ccccc3OC)C2)cc1 ?
Met

----------
Tested System: NPFF2 receptor (CHO-hNPFFR2 membranes) (Homo sapiens)
Construct: purchased PerkinElmer RBHNF2M400UA; host or cells: CHO cell membranes
Sequence (Q9Y5X5 whole entry): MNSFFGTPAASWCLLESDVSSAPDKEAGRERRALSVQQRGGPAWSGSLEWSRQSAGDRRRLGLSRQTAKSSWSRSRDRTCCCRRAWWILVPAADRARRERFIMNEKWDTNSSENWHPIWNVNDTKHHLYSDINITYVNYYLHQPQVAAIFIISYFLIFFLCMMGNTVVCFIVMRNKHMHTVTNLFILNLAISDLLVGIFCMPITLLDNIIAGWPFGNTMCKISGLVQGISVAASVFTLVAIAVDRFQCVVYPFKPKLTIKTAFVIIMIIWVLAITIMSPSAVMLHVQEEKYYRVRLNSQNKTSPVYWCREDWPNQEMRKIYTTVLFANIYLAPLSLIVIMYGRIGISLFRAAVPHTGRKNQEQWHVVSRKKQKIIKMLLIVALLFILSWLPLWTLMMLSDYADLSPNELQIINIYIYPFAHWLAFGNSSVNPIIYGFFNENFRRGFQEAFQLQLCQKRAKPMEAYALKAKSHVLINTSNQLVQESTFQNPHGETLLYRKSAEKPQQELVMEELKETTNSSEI
Method: Radioligand binding assay, [125I]NPFF, NPFF2
Test Readout: pKi
In textbook form, pKi equals minus log to base ten of the concentration in mol/L.

Requested read-out: pKi. Entry: COc1ccc(CN[C@H]2C[C@@H](C(=O)NCCc3ccc([N+](=O)[O-])cc3)N(Cc3ccccc3Cl)C2)cc1
5.78

----------
System: P-gp (MDR1)
Method: Bidirectional MDCK-MDR1 permeability assay
Format: in vitro ADME
Assay Context: dog, MDCK-MDR1, pH 7.4; read-out: efflux ratio (PB→A/PA→B)
Method: Kinetic solubility and bidirectional MDCK-MDR1 permeability assays of the compounds were performed by Paraza Pharma Inc. (Montreal, Canada) according to their standard protocols. Bidirectional MDCK-MDR1 permeability assay. […] The buffer in the donor chamber (apical side for A-to-B assay, basolateral side for B-to-A assay) was removed and replaced with the working solution (10 μM test article in transport buffer). […] Reported apparent permeability (Papp) values were calculated from single determination. […]
Test Readout: efflux ratio at 90 min, 10 μM
Keep it simple and answer with nothing but the number.

Give the reported efflux ratio at 90 min, 10 μM for COc1ccc(CN[C@H]2C[C@@H](C(=O)NCCc3ccc([N+](=O)[O-])cc3)N(Cc3ccccc3Cl)C2)cc1 (system: P-gp (MDR1)).
1.3
